# targetOfAssay: Neu5Ac(a2-3)Gal(b1-4)[Fuc(a1-3)]GlcNAc(b1-6)[Gal(b1-3)]GalNAc
# test: glycan array binding signal (z-score within array); higher = stronger binding
# experimentalContext: glycan notation: IUPAC condensed, linker removed
This excerpt belongs to a sample that is enriched for the strongest signals.
Form field: glycan array binding signal (z-score) (one value per entry).
Answer field: number only, no words.

Observe how each entry below is paired with its result.
>>> experimentalvalue("LecRKVI.2 (protein) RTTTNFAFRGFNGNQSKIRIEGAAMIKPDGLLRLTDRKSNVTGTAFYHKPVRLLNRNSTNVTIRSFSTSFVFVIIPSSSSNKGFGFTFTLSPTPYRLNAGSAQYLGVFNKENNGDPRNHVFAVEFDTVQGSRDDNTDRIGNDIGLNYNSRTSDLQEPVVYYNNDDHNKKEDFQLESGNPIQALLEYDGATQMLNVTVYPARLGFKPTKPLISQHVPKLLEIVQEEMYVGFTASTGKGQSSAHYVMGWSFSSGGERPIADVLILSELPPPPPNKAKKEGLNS")
3.09
>>> experimentalvalue("Actd5 (Actinidia), P84527 (protein) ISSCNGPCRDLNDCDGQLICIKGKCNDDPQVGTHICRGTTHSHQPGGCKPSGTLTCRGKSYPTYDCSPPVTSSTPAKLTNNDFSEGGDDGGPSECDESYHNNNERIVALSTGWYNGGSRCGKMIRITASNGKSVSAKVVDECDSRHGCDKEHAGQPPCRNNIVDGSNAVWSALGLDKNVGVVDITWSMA")
1.5
>>> experimentalvalue("Neuropilin-1 (Homo sapiens), O14786 (protein) FKCMEALGMESGEIHSDQITASSQYSTNWSAERSRLNYPENGWTPGEDSYREWIQVDLGLLRFVTAVGTQGAISKETKKKYYVKTYKIDVSSNGEDWITIKEGNKPVLFQGNTNPTDVVVAVFPKPLITRFVRIKPATWETGISMRFEVYGCKITDYPCSGMLGMVSGLISDSQITSSNQGDRNWMPENIRLVTSRSGWALPPAPHSYINEWLQIDLGEEKIVRGIIIQGGKHRENKVFMRKFKIGYSNNGSDWKMIMDDSKRKAKSFEGNNNYDTPELRTFPALSTRFIRIYPERATHGGLGLRMELLGCEVE")
0.942

Value lookup for glycan array binding signal (z-score); key = CFEM-SCL (Saccharomyces cerevisiae), O13547 (protein) MRATTLLSSVVSLALLSKEVLATPPACLLACVAQVGKSSSTCDSLNQVTCYCEHENSAVKKCLDSICPNNDADAAYSAFKSSCSEQNASLGD
0.813
